As shown below, each of these compounds has a reported inhibition at 10 µM value.
- Target: HDAC6 enzyme (Homo sapiens, UniProt Q9UBN7)
- Construct: transducing full length HDAC6 gene into Sf-9 insect cells; GST; purchased SignalChem; host or cells: Sf-9 insect cells
- Assay Method Text: HDAC6 enzyme inhibitory activity (HDAC-Glo I/II Assay kit)
- Type: biochemical
- Condition Context: 10 μM; wells without enzyme = 100% inhibition; read-out: HDAC6 inhibitory rate (%) (10 μM)
Measured Endpoint: inhibition at 10 µM

{"columns": ["Compound", "Target", "Measured Endpoint", "Observed Result"],
 "data": [
  ["Cn1cc(N2Cc3ccc(-c4nnc(C(F)F)o4)cc3C2=O)c(Br)n1", "HDAC6 enzyme (Homo sapiens, UniProt Q9UBN7)", "inhibition at 10 µM", "91%"],
  ["Cn1cc(-c2cc(F)ccc2N2Cc3ncc(-c4nnc(C(F)F)o4)cc3C2=O)cn1", "HDAC6 enzyme (Homo sapiens, UniProt Q9UBN7)", "inhibition at 10 µM", "100%"],
  ["O=C(N[C@@H]1CCCC[C@H]1N1Cc2ccc(-c3nnc(C(F)F)o3)cc2C1=O)c1cccc(Cl)c1", "HDAC6 enzyme (Homo sapiens, UniProt Q9UBN7)", "inhibition at 10 µM", "100%"],
  ["O=C1c2cc(-c3nnc(C(F)F)o3)ccc2CN1c1ccc(OC(F)(F)F)cc1Br", "HDAC6 enzyme (Homo sapiens, UniProt Q9UBN7)", "inhibition at 10 µM", "91%"],
  ["O=C1c2cc(-c3nnc(C(F)F)o3)cc(F)c2CN1C[C@@H]1CC(F)(F)CN1S(=O)(=O)C1CC1", "HDAC6 enzyme (Homo sapiens, UniProt Q9UBN7)", "inhibition at 10 µM", "100%"],
  ["CC1(C(=O)N[C@@H]2CCCC[C@H]2N2Cc3c(F)cc(-c4nnc(C(F)F)o4)cc3C2=O)COC1", "HDAC6 enzyme (Homo sapiens, UniProt Q9UBN7)", "inhibition at 10 µM", "100%"],
  ["O=C(OCc1ccccc1)C1CC(F)(F)CCN1N1Cc2ccc(-c3nnc(C(F)F)o3)cc2C1=O (centres unmarked)", "HDAC6 enzyme (Homo sapiens, UniProt Q9UBN7)", "inhibition at 10 µM", "98%"],
  ["Cc1nc2ccccc2n1[C@@H]1CCCC[C@H]1N1Cc2ncc(-c3nnc(C(F)F)o3)cc2C1=O", "HDAC6 enzyme (Homo sapiens, UniProt Q9UBN7)", "inhibition at 10 µM", "99%"]
]}

* * *

As shown below, each of these compounds has a reported inhibition at 10 µM value.
- Target: HDAC6 enzyme (Homo sapiens)
- Construct: transducing full length HDAC6 gene into Sf-9 insect cells; GST; purchased SignalChem; host or cells: Sf-9 insect cells
- Sequence (Q9UBN7 1-1215): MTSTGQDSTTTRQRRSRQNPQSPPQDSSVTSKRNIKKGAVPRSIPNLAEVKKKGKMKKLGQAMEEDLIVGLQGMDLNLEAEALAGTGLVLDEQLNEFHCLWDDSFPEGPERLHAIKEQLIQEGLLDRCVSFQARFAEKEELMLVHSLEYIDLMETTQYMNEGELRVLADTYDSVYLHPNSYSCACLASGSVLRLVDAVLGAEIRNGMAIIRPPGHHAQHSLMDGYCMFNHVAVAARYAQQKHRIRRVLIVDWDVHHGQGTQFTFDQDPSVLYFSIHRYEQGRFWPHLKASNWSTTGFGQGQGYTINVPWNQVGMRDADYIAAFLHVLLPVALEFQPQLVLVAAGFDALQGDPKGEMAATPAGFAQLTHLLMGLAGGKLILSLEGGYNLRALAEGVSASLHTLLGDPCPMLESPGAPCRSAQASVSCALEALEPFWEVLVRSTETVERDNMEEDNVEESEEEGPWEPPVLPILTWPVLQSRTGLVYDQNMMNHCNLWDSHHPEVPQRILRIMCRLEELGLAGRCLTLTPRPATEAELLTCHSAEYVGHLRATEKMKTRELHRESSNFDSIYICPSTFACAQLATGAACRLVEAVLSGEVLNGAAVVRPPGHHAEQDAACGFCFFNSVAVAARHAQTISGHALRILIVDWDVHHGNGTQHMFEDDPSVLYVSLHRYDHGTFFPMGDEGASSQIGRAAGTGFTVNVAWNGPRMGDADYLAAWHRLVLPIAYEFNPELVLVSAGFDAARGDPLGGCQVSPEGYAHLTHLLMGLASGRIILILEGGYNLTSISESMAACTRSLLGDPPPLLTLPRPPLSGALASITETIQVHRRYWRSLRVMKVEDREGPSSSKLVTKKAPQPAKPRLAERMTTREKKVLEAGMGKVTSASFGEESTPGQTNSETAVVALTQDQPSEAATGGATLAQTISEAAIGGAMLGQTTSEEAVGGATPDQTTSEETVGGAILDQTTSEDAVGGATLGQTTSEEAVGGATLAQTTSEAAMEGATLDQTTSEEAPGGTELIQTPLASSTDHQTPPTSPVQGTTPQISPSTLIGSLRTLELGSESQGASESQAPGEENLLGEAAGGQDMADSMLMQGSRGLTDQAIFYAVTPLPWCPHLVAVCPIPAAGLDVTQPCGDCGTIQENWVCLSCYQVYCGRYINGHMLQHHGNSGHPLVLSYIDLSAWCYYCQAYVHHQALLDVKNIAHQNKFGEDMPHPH
- Assay Method Text: HDAC6 enzyme inhibitory activity (HDAC-Glo I/II Assay kit)
- Assay type: biochemical
- Condition Context: 10 μM; wells without enzyme = 100% inhibition; read-out: HDAC6 inhibitory rate (%) (10 μM)
Measured Endpoint: inhibition at 10 µM (%)

{"columns": ["Compound", "Units Of Measure", "Observed Result"],
 "data": [
  ["O=C1c2cc(-c3nnc(C(F)F)o3)ccc2CN1C[C@H]1CCCCN1C(=O)C1CC1", "%", 98],
  ["O=C1c2cc(-c3nnc(C(F)F)o3)ccc2CN1c1cccn2ccnc12", "%", 89],
  ["O=C1c2cc(-c3nnc(C(F)F)o3)ccc2CN1C1(Cc2ccccc2)CCOCC1", "%", 101],
  ["O=C1c2cc(-c3nnc(C(F)F)o3)cc(F)c2CN1C[C@H]1COCCN1S(=O)(=O)c1ccccc1F", "%", 100],
  ["O=C1c2cc(-c3nnc(C(F)F)o3)ccc2CN1c1ccc(F)cc1Br", "%", 94],
  ["Cn1cc(C(C)(C)O)c(N2Cc3ccc(-c4nnc(C(F)F)o4)cc3C2=O)n1", "%", 99],
  ["O=C1c2cc(-c3nnc(C(F)F)o3)cc(F)c2CN1[C@@H]1CCCC[C@H]1NC(=O)C1(C(F)F)CC1", "%", 98],
  ["O=C1c2cc(-c3nnc(C(F)F)o3)cc(F)c2CN1C[C@H]1CCCN1S(=O)(=O)C1CC1", "%", 99],
  ["O=C1CCCN1c1ccccc1N1Cc2ccc(-c3nnc(C(F)F)o3)cc2C1=O", "%", 99],
  ["O=C1c2cc(-c3nnc(C(F)F)o3)cnc2CN1[C@@H]1COCC[C@H]1Oc1cccc(F)c1F", "%", 100],
  ["O=C(NC1CC(F)(F)CC[C@H]1N1Cc2ccc(-c3nnc(C(F)F)o3)cc2C1=O)OCc1ccccc1 (stereo in doubt)", "%", 100],
  ["CC(C)(CF)OC(=O)N[C@H]1[C@H](N2Cc3ncc(-c4nnc(C(F)F)o4)cc3C2=O)CCCC1(F)F", "%", 99],
  ["O=C1c2cc(-c3nnc(C(F)F)o3)cc(F)c2CN1C[C@H]1CC(F)(F)CN1C(=O)C1CC1", "%", 98],
  ["N#Cc1cccc(-c2ncccc2N2Cc3ccc(-c4nnc(C(F)F)o4)cc3C2=O)c1", "%", 100],
  ["O=C1c2cc(-c3nnc(C(F)F)o3)cc(F)c2CN1[C@@H]1CCOC[C@H]1NC(=O)C1(C(F)(F)F)CCC1", "%", 101],
  ["O=C1c2cc(-c3nnc(C(F)F)o3)ccc2CN1N1CCOCC1c1ccccc1 (stereo not shown)", "%", 98]
]}

The values you see were collected from patent US10435399B2.
